B1: Hairpin Ribozyme (parent)
chain: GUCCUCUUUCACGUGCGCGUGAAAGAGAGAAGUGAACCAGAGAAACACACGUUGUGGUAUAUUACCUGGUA

Variants of: B1
procedure details: self-cleavage, relative activity (ratio to wild type); higher = more cleavage; co-transcriptional
Lab note: anything with self-cleavage at or over 0.2 counts as met; the rest go in not met.

| macromolecule sequence | answer label |
| --- | --- |
| GUCCUCUUUCACGUGCGCGUGAAAGAGAGAAGUGAACCAGAGACACACACGUUGUGGUAUAUAACCUGGUA | not met |
| GUCCUCUUUCACGUGCGCGUGAAAGAGAGAAGAGAACCAGAGAAACACACGUUGUGGUAUAUUACCGGGUA | not met |
| GUCCUCUUUCACGUGCGCGUGAAAGAGAGAAGUGACCCAGAGAAACACGCGUUGUGGUAUAUUACCUGGUA | met |
| GUCCUCUUACACGUGCGCGUGAAAGAGAGAAGUUAACCAGAGAAACACACGUUGUGGUAUAUUACCUGGUA | met |
| GUCCUCUUUCACGUGCGCGUCAAAGAGAGAAUUGAACCAGAGAAACACACGUUGUGGUAUAUUACCUGGUA | not met |
| GUCCUCUUUCACGUGCGCGUGAAAGAGAGAAGUGAACCAGAAAAACACACGUUGUGGUAUAUUACAUGGUA | not met |
| GUCCUCCUUCACGUGCGCGUGAAAGAGAGAAGUGAACCAGAGAAACACACGUUGUGGUAUAUUACGUGGUA | not met |
| GUCCUCUUUCACGUGCGCGUGAAAGAGAGAAGUUAACCAGACAAACACACGUUGUGGUAUAUUACCUGGUA | met |
| GUCCUCUUUCACGUGCGCGUGAAAGAGAGAAGUGAAACAGAGAAACACACGUUGUGGUAAAUUACCUGGUA | met |
| GUCCUCUUUCACGUGCGAGUGAAAGAGAGAAGUGAACCAGAGAAACACACGUUGUGGUAUAUUACCUGGUU | met |
| GUCCUCUUUUACGUGCGCGUGAAAGAGAGAAGUGAACCAGAGAAACACACGUUGUUGUAUAUUACCUGGUA | not met |
| GUCCUCUUUCACGUGCGCGUGAAAUAGAGAAGUGAACUAGAGAAACACACGUUGUGGUAUAUUACCUGGUA | met |
| GUCCUCUUUCACAUGGGCGUGAAAGAGAGAAGUGAACCAGAGAAACACACGUUGUGGUAUAUUACCUGGUA | met |
| GUCCUCUUUCACGUGCGGGUGAAAGAGAGAAGUGGACCAGAGAAACACACGUUGUGGUAUAUUACCUGGUA | met |
| GUCCUCUUUCACGUGCGCGUGAAAGAGAGAAGUGAACCAGAGAAACACACGUUGGGGUAUAUUCCCUGGUA | not met |
| GUCCUCUUUCACGUGCGCUUGAAAGAGAGAAGUGAACAAGAGAAACACACGUUGUGGUAUAUUACCUGGUA | not met |
| GUCCUCUUCCACGUGCGCGUGAAAGAGAGAAGUGAACCAGAGAAACAUACGUUGUGGUAUAUUACCUGGUA | not met |
| GUCCUCUUUCACGUGCGCGUGAAAGAGAGAAGUGAACCAGAGAUACACACGUUGUGGUAUAUUACCAGGUA | not met |
| GUCCUCUUUCACGUGCGCGUGAAAGAGAGAAGUGACCCAGAGAAACACACGUUGUGGUAUAGUACCUGGUA | not met |
| UUCCUCUUUCACGUGGGCGUGAAAGAGAGAAGUGAACCAGAGAAACACACGUUGUGGUAUAUUACCUGGUA | not met |
| GUCCUCUUUCACGUGCGCGUGAAAGAGAGAAGUGUAGCAGAGAAACACACGUUGUGGUAUAUUACCUGGUA | not met |
| GUCCUCUUUUACGUGCGCGUGAAAGAGAGAAGUGUACCAGAGAAACACACGUUGUGGUAUAUUACCUGGUA | met |
| GUCCUCUUUCACGUGCGCGUGAAAGAGAGAAGUUAGCCAGAGAAACACACGUUGUGGUAUAUUACCUGGUA | met |
| GUCCUCUUUCACGUGCGCGUGUAAGAGAGAAGUGAACCAGAGAAACACACGUUGGGGUAUAUUACCUGGUA | met |
| GUCCUCUUUCACGUGCGCGUGAAAGAGAGAAGUCAACCAGAGAAUCACACGUUGUGGUAUAUUACCUGGUA | met |
| GUCCUCUUUCACCUGCGCGUGAAAGAGAGAAGUGAACCAGAGAAACACACCUUGUGGUAUAUUACCUGGUA | met |
| GUCCUCUUUCACGUGCGCGUGAAAGAGAGAAGUGAACCAGAGAAACACACGUUGUGGUAUAUUAUAUGGUA | not met |
| GUCCUCUUUCACGUGCGCGUGAAAGAGAGAGGUGAACCAGAGAAACACACGUUGUAGUAUAUUACCUGGUA | not met |
| GUCCUCUUUCACGUGUGCGUGAACGAGAGAAGUGAACCAGAGAAACACACGUUGUGGUAUAUUACCUGGUA | met |
| GUCCUCUUUCACGUGCGCGUGAAAGAGAGAAGUGAACCAGAGAAACACAAGUUGUGGUAUACUACCUGGUA | not met |
| GUCCUCUUUCACGUGCGCGUGAAAGAGAGAAGUGAACUAGAGAAACACACGUUGUGGUAUAUAACCUGGUA | not met |
| GUCCUCUUUCACGUGCGCGUGAAAGAGAGAAGUGAACCACAGAAACACACGUUGUGGUAUAUCACCUGGUA | not met |
| GUCCUCUUUCACGUGCGCGUGAAAGAGAGAAGUUAACCACAGAAACACACGUUGUGGUAUAUUACCUGGUA | met |
| GUCCUCUUUCACGUGCCCGUGAGAGAGAGAAGUGAACCAGAGAAACACACGUUGUGGUAUAUUACCUGGUA | met |
| GUCGUCUUUCACGUGCGCGUGAAAGAGAGAAGUGAACCAGAGAAACACACGUUGUGGUAUAUUACCAGGUA | not met |
| GACCUCUUUCACGUGCGCGUGAAAGAGAGAAGUGAACCAGAGAAACACACGUUGUGGUAUAUUACGUGGUA | not met |
| GUCCUCUUUCACGUGCGCGUGAAAGAGAGAAGUGAACCAGAGAAACACACGUUGUGGAAUAUUACCUGCUA | met |
| GUCCUCUUCCACGUGCGCGUGAAAGAGAGAAGUGAACCAGAGAAACUCACGUUGUGGUAUAUUACCUGGUA | not met |
| GUCCUCUUUCACGUGCGCGUGAAAGAGAGAAGUGAACCUGAGAAACACACGCUGUGGUAUAUUACCUGGUA | met |
| GUCCUCUUUCACGUGUGCGUGAAAGAGAGAAGUGAACCAGAGAAACACACGUUGUGGUAUAUUACCUUGUA | met |
| GUCCUCUUUCUCGUGCGCGUGAAAGAGAGAAGUGAACCAGAGAAACACACGUUGUGGUAUAUUACCUGGUU | met |
| GUCCUCUUUCACGUGCGCGUGAAAGAGAGAAGUGGACCAGAGAAACACACGUUGUGGUAUAUUACAUGGUA | not met |
| GUCCUCUUUCACGUGCGCGUGAGAGAGAGAAGUGAACCAGAGAAACACACGUUGUGGUAUAUUACCUGGUA | met |
| GUCCUCUUUCACGUGCGCGUGAAAGAGAGAAGUGAACCAGAGAAAAACACGUUGUGCUAUAUUACCUGGUA | not met |
